test: Urinary excretion (bioavailability) after intravenous, oral and nasal administration in the rat; drug in urine determined by muscarinic receptor binding assay; assay type: in vivo, male Sprague-Dawley rats; details: rat, urine, 2 mg, nasal, gel, 2 mg/rat, hours 0-6, mean of 10 rats; read-out: amount of the compound found in the urine
MEASUREMENT_TYPE: dose excreted at 6 h (%)
Reply numerically in %, unit not repeated.

Prompt line: Identify measured dose excreted at 6 h corresponding to C[N+]1(CC2CC2)C2CC(OC(=O)C(CO)c3ccccc3)CC1C1OC12 (stereo not shown) [N-cyclopropylmethylscopolamine bromide]
Response line: 2.39

----------
assay: Urinary excretion (bioavailability) after intravenous, oral and nasal administration in the rat; drug in urine determined by muscarinic receptor binding assay; type: in vivo, male Sprague-Dawley rats; conditions: urine, 2 mg; nasal route, both galenic formulations, solution and gel, rat; read-out: absolute bioavailability
MEASUREMENT_TYPE: bioavailability
Number first, unit second.

Prompt line: Quickly give me recorded bioavailability for C[N+]1(CC2CC2)C2CC(OC(=O)C(CO)c3ccccc3)CC1C1OC12 (stereo not shown) [N-cyclopropylmethylscopolamine bromide]
Response line: 23%
